The following molecules are listed with their measured Cytotoxicity Cell morphology (MCC) values.
system: human embryonic lung (HEL) cells; assay: Cytotoxicity, cell morphology (MCC), HEL cells; format: cell-based; details: Table 4 (VZV experiment)
Square brackets hold non-standard residues; d marks the D form. Peptide text beside a SMILES is read from it. * marks the point of attachment. Heptanoyl = CCCCCCC(=O)*; Boc = CC(C)(C)OC(=O)*

[[record]]
molecule = "O=c1[nH]c(=O)n([C@H]2C[C@H](O)[C@@H](CO)O2)cc1/C=C/Br [Brivudine (BVDU), Brivudine, reference compound]"
assay_system = "human embryonic lung (HEL) cells"
obs_value = ">300.3 μM"

[[record]]
molecule = "CC(=O)NCC(=O)N[C@H](Cc1ccccc1)C(=O)N[C@H](C=O)Cc1c[nH]cn1 [TRIP 5] (Ac-Gly-[dF]-His-aldehyde)"
assay_system = "human embryonic lung (HEL) cells"
obs_value = ">100 μM"

[[record]]
molecule = "CC(C)(C)OC(=O)NCC(=O)N[C@H](Cc1ccccc1)C(=O)N[C@H](C=O)Cc1c[nH]cn1 [TRIP 43] (Boc-Gly-[dF]-His-aldehyde)"
assay_system = "human embryonic lung (HEL) cells"
obs_value = ">100 μM"


# evaluate next
Q: What value of measured Cytotoxicity Cell morphology (MCC) is listed for CCCCCCC(=O)NCC(=O)N[C@H](Cc1ccccc1)C(=O)N[C@H](C=O)Cc1c[nH]cn1 [TRIP 44] (Heptanoyl-Gly-[dF]-His-aldehyde) ?
A: >100 μM

* * *

The following molecules are listed with their measured Cytotoxicity Cell morphology (MCC) values.
system: human embryonic lung (HEL) cells; test: Cytotoxicity, cell morphology (MCC), HEL cells; type: cell-based; conditions: Table 3 (HCMV experiment)
Square brackets hold non-standard residues; d marks the D form. Peptide text beside a SMILES is read from it. * marks the point of attachment. Heptanoyl = CCCCCCC(=O)*; Boc = CC(C)(C)OC(=O)*

Some molecules with recorded Cytotoxicity Cell morphology (MCC):
[[record]]
molecule = "Nc1ccn(C[C@@H](CO)OCP(=O)(O)O)c(=O)n1 [Cidofovir (CDV), Cidofovir, reference compound]"
assay_system = "human embryonic lung (HEL) cells"
obs_value = "317 μM"

[[record]]
molecule = "CC(=O)NCC(=O)N[C@H](Cc1ccccc1)C(=O)N[C@H](C=O)Cc1c[nH]cn1 [TRIP 5] (Ac-Gly-[dF]-His-aldehyde)"
assay_system = "human embryonic lung (HEL) cells"
obs_value = "100 μM"


Q: What value of measured Cytotoxicity Cell morphology (MCC) is listed for CCCCCCC(=O)NCC(=O)N[C@H](Cc1ccccc1)C(=O)N[C@H](C=O)Cc1c[nH]cn1 [TRIP 44] (Heptanoyl-Gly-[dF]-His-aldehyde) ?
A: 100 μM

Q: What value of measured Cytotoxicity Cell morphology (MCC) is listed for CC(C)(C)OC(=O)NCC(=O)N[C@H](Cc1ccccc1)C(=O)N[C@H](C=O)Cc1c[nH]cn1 [TRIP 43] (Boc-Gly-[dF]-His-aldehyde) ?
A: 100 μM

* * *

target: SARS-COV-2 M^pro (3264-3569aa) (Severe acute respiratory syndrome coronavirus 2, UniProt P0DTD1)
Square brackets hold non-standard residues; d marks the D form. Peptide text beside a SMILES is read from it.
quantity measured: pKd
Value format note: pKd is -log10 of concentration (mol/L); just state the number.

Q: What value of measured pKd is listed for CC(=O)NCC(=O)N[C@H](Cc1ccccc1)C(=O)N[C@H](C=O)Cc1c[nH]cn1 [TRIP 5] (Ac-Gly-[dF]-His-aldehyde) ?
A: 5.90

* * *

test system: SARS-COV-2 UK (NVDBB) strain; assay: microbe, parasite or virus in culture; conditions: Severe acute respiratory syndrome coronavirus 2, Vero, read-out: Antiviral activity EC50 UK (NVDBB) strain Vero cells
quantity measured: EC50
Field note: include the unit after the figure.

Q: What value of measured EC50 is listed for CCC(CC)COC(=O)[C@H](C)N[P@](=O)(OC[C@H]1O[C@@](C#N)(c2ccc3c(N)ncnn23)[C@H](O)[C@@H]1O)Oc1ccccc1 ?
A: 190 nM

* * *

Form: system (SARS-COV-2 M^pro (3264-3569aa) (Severe acute respiratory syndrome coronavirus 2)), quantity (IC50), values below.
Square brackets hold non-standard residues; d marks the D form. Peptide text beside a SMILES is read from it. ξ: configuration not given here. ξY = NC(Cc1ccc(O)cc1)C(=O)O
Report the value in µM with no unit label.

[[record]]
compound = "CC(=O)NCC(=O)N[C@H](Cc1ccccc1)C(=O)N[C@H](C=O)Cc1c[nH]cn1 [TRIP 5] (Ac-Gly-[dF]-His-aldehyde)"
assay_system = "SARS-COV-2 M^pro (3264-3569aa) (Severe acute respiratory syndrome coronavirus 2)"
quantity_measured = "IC50"
measure_unit = "µM"
obs_value = 2.51


Q: What value of measured IC50 is listed for CC(=O)NCC(=O)NC(Cc1ccc(O)cc1)C(=O)N[C@H](C=O)Cc1c[nH]cn1 (some centres unmarked) [TRIP 23] (Ac-Gly-[ξY]-His-aldehyde) ?
A: 198

* * *

system: Vero cells; settings: African green monkey
quantity measured: CC50 (µM)
Report the value in µM with no unit label.

Q: Recorded CC50 for CCC(CC)COC(=O)[C@H](C)N[P@](=O)(OC[C@H]1O[C@@](C#N)(c2ccc3c(N)ncnn23)[C@H](O)[C@@H]1O)Oc1ccccc1 with Vero cells, please?
A: 59.1

* * *

pIC50: −log10 of the molar value. Square brackets hold non-standard residues; d marks the D form. Peptide text beside a SMILES is read from it. ξ: configuration not given here. ξTic = O=C(O)C1Cc2ccccc2CN1
Form: system (SARS-COV-2 M^pro (3264-3569aa) (Severe acute respiratory syndrome coronavirus 2)), quantity (pIC50), values below.

[[record]]
compound = "CC(C)C[C@H](C=O)NC(=O)[C@H](Cc1ccccc1)NC(=O)C1Cc2ccccc2CN1 (stereo partly drawn) [TRIP 3] (H-[ξTic]-Phe-[dL]-aldehyde)"
obs_value = "< 3.37"

[[record]]
compound = "O=CCNC(=O)[C@@H](Cc1c[nH]cn1)NC(=O)[C@H](Cc1c[nH]cn1)NC(=O)C1Cc2ccccc2CN1 (stereo partly drawn) [TRIP 41] (H-[ξTic]H[dH]G-aldehyde)"
obs_value = "< 3.37"


# evaluate next
Q: What value of measured pIC50 is listed for CC(=O)NCC(=O)N[C@@H](Cc1ccccc1)C(=O)N[C@H](Cc1c[nH]cn1)C(=O)NCC=O [TRIP 42] (Ac-GF[dH]G-aldehyde) ?
A: < 3.37

These entries and their values trace back to patent US20240368232A1.
